Source listed as ChEMBL document CHEMBL3507680.

What cytotoxicity at 70.5 h was measured for each of the following?
ASSAY NOTES: Human HepG2 cell viability assay in 384 well format
Assay type: toxicity, cell-based
Set-up: dose 125 nL, time 70.5 hour; concentration not given beside the values
CONDITION SET: HepG2 cells, read-out: Inhibition
Use % as the unit, but write only the number.

Fill blank: measured cytotoxicity at 70.5 h of the molecule Fc1ccc(C2CN(c3ncnc4nc[nH]c34)CCO2)cc1 (centres undefined) is ____. -11.9

Now the molecule COC(=O)CCNC(=O)c1cc(-c2ccc(OC)cc2)nn1C -3.5

Now the molecule COc1ccccc1-n1nc(C(C)C)nc1Cc1nnc(N)s1 -12.4

Now the molecule CS(=O)(=O)CCNC(=O)c1ccc(-c2ccco2)[nH]c1=O 1.54

Now the molecule O=c1[nH]c(-c2cccnc2)nc2c1CCN(S(=O)(=O)N1CCCC1)C2 -12

Now the molecule CC(NC(=O)NCc1ccoc1)c1ccc2c(c1)CCC(=O)N2 (centres undefined) 14.8

Now the molecule CCN(CC)C1CCN(C(=O)NCc2cccc(-n3cccn3)c2)C1 (centres undefined) -8.43

Now the molecule Cc1noc(CCCC(=O)NCC2CCS(=O)(=O)C2)n1 (centres undefined) 1.41

Now the molecule CCC(C)(C)n1nnnc1C(c1cccs1)N1CCc2ccccc21 (centres undefined) -1.64

Now the molecule CCN1CCCC(O)(CN(C)Cc2ccc(C)o2)C1 (centres undefined) -10.6

Now the molecule CCN1CC(C(=O)NCc2nc(C3CCCCC3)no2)CC1=O (centres undefined) 5.22

Now the molecule CN(C(=O)NCC1(CN2CCOCC2)CCCCC1)C1CC1 -4.71

Now the molecule Cc1cccc(C(=O)N(C)C2CCN(c3ccccn3)CC2)c1C 2.5

Now the molecule CC(C)c1cc(N2CCC(N)CC2)n2nccc2n1 -4

Now the molecule Cc1cc(-c2cnc(NCc3ccc4c(c3)OCO4)nc2C(C)C)on1 -4.67

Now the molecule CC(C)CC(NC(=O)C1=CCCC1)C(=O)N1CCC(CO)CC1 (centres undefined) 0.304

Now the molecule O=C(c1ccc(-n2ccnc2)cc1)N1CCCC1 34.6

Now the molecule COCCC(C)NC(=O)Nc1ccc(N2CCOC2=O)c(OC)c1 (centres undefined) -11

Now the molecule CCOC(=O)NC(CNC(=O)c1cn(C)cn1)CC(C)C (centres undefined) -1.97

Now the molecule CCC1=N[C@@]2(CC[C@@H]3CN(Cc4ccc(Cl)cc4)C[C@@H]32)C(=O)N1 -3.73

Now the molecule COc1cc(F)c(CN2CC[C@@](O)(C3CC3)[C@H](C)C2)cc1OC -3.1

Now the molecule CSc1ccccc1C(=O)N1C[C@H]2CC[C@@H]1CN(C(=O)N(C)C)C2 -8.08

Now the molecule O=C(NCCN1CCNCC1)c1c(O)c2ccccc2[nH]c1=O 36.3

Now the molecule COc1ccccc1OCCCN1CCNC1=O -8.47

---

ASSAY NOTES: Human HepG2 cell viability assay in 384 well format
Format: toxicity, cell-based
Set-up: dose 125 nL, time 70.5 hour; concentration not given beside the values
CONDITION SET: HepG2 cells, read-out: Inhibition
What cytotoxicity at 70.5 h was measured for each of the following?
Use % as the unit, but write only the number.

Fill blank: measured cytotoxicity at 70.5 h of the molecule Cc1ccc2nc(C(=O)N3C[C@@H](C(=O)O)[C@H](c4cccnc4)C3)cn2c1 is ____. -5.46

Now the molecule CC(C)N1CCC(c2n[nH]cc2-c2ccnc(N)c2)C1 (centres undefined) 2.17

Now the molecule Cc1cccc(CN2CCC3(CCCN(C(=O)NC4CC4)C3)C2=O)n1 (centres undefined) 25.5

Now the molecule CN(Cc1cn2c(n1)CN(C1CCOCC1)CC2)Cc1ccco1 24.6

Now the molecule CC(C)n1c2ccccc2c2c1cc(C(=O)N(C)C)n2S(C)(=O)=O 13.1

Now the molecule CS(=O)(=O)CCCNC(=O)NC1CC(c2cccc(Cl)c2)C1 (centres undefined) -3.19

Now the molecule Cc1nc(CN2CCN(C(=O)c3sccc3C3CC3)CC2)oc1C 12.6

Now the molecule CCS(=O)(=O)N1CCCC(c2nccn2Cc2cccnc2)C1 (centres undefined) -7.4

Now the molecule CC(C)C(=O)NS(=O)(=O)c1ccc(F)c(C(F)(F)F)c1 -10.6

Now the molecule CC(C)c1nccn1CCC(=O)N1CCCCC1c1ccn[nH]1 (centres undefined) 3.76

Now the molecule Cn1[nH]c(Br)c2/c(=N\CCN)ncnc1-2 -7.01

Now the molecule CC(C)CCC(=O)N1CCN(C(=O)c2ccc(-n3cccn3)cc2)CC1 -3.97

Now the molecule C=Cc1ccc(C(=O)N2CCCC(Nc3ccc(F)c(F)c3)C2)cc1 (centres undefined) 26

Now the molecule CCC1(O)CCCN(c2nc(-c3ccccn3)nc3c2c(C)nn3C)C1 (centres undefined) -2.92

Now the molecule CN(C)c1nccc(C2CCN(C3CCCCC3O)CC2)n1 (centres undefined) 21.1

Now the molecule C/C(=C\c1ccco1)CN(C)C(C)Cc1cc(C)ccn1 (centres undefined) -0.46

Now the molecule CNc1ncccc1CN1CCN(C)CC(C(=O)N(C)C)C1 (centres undefined) 14.6

Now the molecule CC(C)c1ccc(-n2cc(O)c(C(=O)O)n2)cc1 -5.79

Now the molecule Cc1cccc(C(=O)NCc2ccc(N3CCCCCC3)nc2)n1 -6.26

Now the molecule CC(C)OCCS(=O)(=O)N1CCCC1c1cccc(N(C)C)c1 (centres undefined) -5.82

Now the molecule Cc1nc2c(C)cccc2cc1C(=O)N1CCC2(CCNCC2)CC1 -5.65

Now the molecule CN1C[C@@H](F)[C@@H](OCc2nc3ccc(C#N)cc3[nH]2)C1 -2.32

Now the molecule Cc1cccn2c(CC(=O)N3CCC(Oc4ncccn4)CC3)cnc12 25.3

Now the molecule Cc1c(C(=O)NC2=NCCS2)cnn1-c1ccc(Br)cc1 -15

---

What cytotoxicity at 70.5 h was measured for each of the following?
ASSAY NOTES: Human HepG2 cell viability assay in 384 well format
Assay type: toxicity, cell-based
Design: dose 125 nL, time 70.5 hour; concentration not given beside the values
CONDITION SET: HepG2 cells, read-out: Inhibition
Returns: string containing the numeric result and its unit.

Fill blank: measured cytotoxicity at 70.5 h of the molecule CC(C)NC(=O)NC(C)c1ccc(-c2ccncc2)cc1 (stereo unspecified) is ____. -7.15%

Now the molecule O=C(c1ccc(NC2CC2)nc1)N1CCCC(n2ccnc2)C1 (stereo unspecified) -12.9%

Now the molecule COCCN1C[C@H]2CC[C@@H]1CN(C(=O)CCn1cc(Cl)cn1)C2 -10.6%

Now the molecule Cc1noc(-c2cccnc2N(C)Cc2cc(C)on2)n1 -7.15%

Now the molecule CCCc1cnc(C)nc1N1CCC(Cc2ccc(CO)cc2)C1 (stereo unspecified) -10.5%

Now the molecule COCCOCCNC(=O)c1ccc(N2CCC(C)=N2)cc1 -3.96%

Now the molecule Cc1ncc(C(=O)N2CCCC2(C)C(=O)N2CCOCC2)c(C)n1 (stereo unspecified) -7.99%

Now the molecule COCC1N(S(=O)(=O)c2cn(C)cn2)[C@H]2CC[C@]1(O)CC2 (stereo partly specified) -7.28%

Now the molecule CC(C)c1noc(CCC(=O)Nc2cc(C(F)(F)F)c[nH]c2=O)n1 -3.33%

Now the molecule Fc1ccccc1CNc1ccnc(C2CCNCC2)c1 18%

Now the molecule Cc1cnc(N2CCCC3(CCCN3CC(=O)N(C)C)C2)nc1 (stereo unspecified) 12.8%

---

ASSAY NOTES: Human HepG2 cell viability assay in 384 well format
Type: toxicity, cell-based
Parameters: dose 125 nL, time 70.5 hour; concentration not given beside the values
CONDITION SET: HepG2 cells, read-out: Inhibition
READOUT KIND: cytotoxicity at 70.5 h (%)
Use % as the unit, but write only the number.

Fill blank: measured cytotoxicity at 70.5 h of the compound CC1(C)C[C@H](CCNC(=O)c2ccncc2)c2ccccc2O1 is ____. -10

Now the compound CCOc1ccccc1C(CC(=O)O)NC(C)=O (centres undefined) -4.62

Now the compound CCC1CN(C(=O)c2csc(-c3cnn(C)c3)n2)CCO1 (centres undefined) -10.2

Now the compound Cc1cccc(CN2C[C@@H]3CN(Cc4ccoc4)CCO[C@@H]3C2)n1 -1.63

Now the compound CC(C)n1nc2c(cc1=O)CN(CCOc1ccccc1C#N)CC2 6.74

Now the compound Cn1cc(C(=O)N2CC[C@H](N3CCOCC3)[C@H](CCCO)C2)cn1 -12.1

Now the compound Cc1nc2[nH]cnc(NCCN3CCOCC3)c-2n1 -1.72

Now the compound Cc1ccc(C(O)CNC(=O)c2cccnc2O)cc1 (centres undefined) -12.1

Now the compound OC(CN(Cc1ccccc1)Cc1cscn1)c1ccco1 (centres undefined) -9.5

Now the compound CC(C)c1nccn1C(C)C(=O)N1CCN(c2ccccc2Cl)CC1 (centres undefined) -4.99

Now the compound Cc1nc(CN(Cc2ccc3c(c2)OCCO3)C2CCCC2)no1 -7.64

Now the compound O=S1(=O)CCC(n2cc(C3=CCN(CCN4CCCCC4)CC3)cn2)C1 (centres undefined) -7.91

Now the compound CCOCCSc1nnc(-c2cn(CC)nc2OCC)n1C -7.58

Now the compound CCN(CC)C(=O)Cn1ccc2cc(NC(=O)COC)ccc21 -2.77

Now the compound CCNC(c1ccc(OC)cc1)c1cccnc1 (centres undefined) -8.14

Now the compound CC(C)CCN1CCCC(Cn2cc(CCO)nn2)C1 (centres undefined) -2.37

Now the compound CCCc1nnc(NC2CCN(C3CCCC3)CC2)o1 -12.5

Now the compound Cc1n[nH]c(C)c1-c1cc(-c2cccc(O)c2)nc(N)c1C#N -8.76

Now the compound CC(C)N1C[C@H](O)C[C@H]1c1nc(-c2ccc(OC(F)(F)F)cc2)no1 -3.17

Now the compound CS(=O)(=O)N1C[C@H]2CNC[C@@]2(C(=O)NCCCc2ccccc2)C1 -3.07

Now the compound Cc1cnn(CCNCc2nnc(-c3occc3C)o2)c1 -5.91

Now the compound O=C(NCCNc1ncccn1)N1CCCC1c1ccc(F)cc1 (centres undefined) -9.37

Now the compound CN(Cc1cc2n(n1)CCN(C(=O)c1cccnc1)C2)Cc1nccs1 -12

Now the compound CC(C)c1cc(CN2CCC(N)CC2)on1 19.4
